Where do the numbers come from? From PubChem BioAssay AID624169.

biological target: 5-hydroxytryptamine receptor 2A (Mus musculus) (UniProt P35363); test: mouse Htr2a agonists via beta-arrestin recruitment, primary screen, cell-based, luminescence (AID 624169); settings: CHO-K1 mHTR2A beta-arrestin complementation, at 7.6 µM, percent of 30 µM serotonin response
Sequence (P35363 whole entry, looked up): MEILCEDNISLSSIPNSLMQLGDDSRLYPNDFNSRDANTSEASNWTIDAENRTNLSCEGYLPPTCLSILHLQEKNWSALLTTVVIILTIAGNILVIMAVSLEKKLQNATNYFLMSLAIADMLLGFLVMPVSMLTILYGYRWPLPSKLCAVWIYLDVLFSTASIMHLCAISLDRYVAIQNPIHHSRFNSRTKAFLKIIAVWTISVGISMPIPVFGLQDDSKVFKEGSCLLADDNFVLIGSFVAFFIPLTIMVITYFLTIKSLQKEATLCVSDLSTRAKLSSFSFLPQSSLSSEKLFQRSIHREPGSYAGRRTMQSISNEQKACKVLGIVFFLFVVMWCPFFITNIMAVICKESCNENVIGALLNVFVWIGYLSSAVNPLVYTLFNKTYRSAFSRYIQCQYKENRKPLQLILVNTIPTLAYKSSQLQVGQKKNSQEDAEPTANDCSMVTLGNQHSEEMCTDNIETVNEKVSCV
In all, about 360,000 compounds went through this assay and about 2,400 (0.67%) were called active.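 How the source made its calls: active means activation above a run cutoff, the mean activation of all tested compounds plus 3 SD (cut at about 14% in these data); inactive means the rest.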 Only a selection was taken, and actives are over-represented in it overall.
Classes to choose from: T (active), F (inactive)

QUERY: Give the logged outcome of this assay for the following molecule: CC(=O)Nc1ccc(S(=O)(=O)N2CCC(N(C)CCC(C)C)CC2)cc1
RESULT: F

QUERY: Would you mind telling me which call this test gave CC(C)Oc1ccccc1C(=O)NC(CO)C(=O)O (stereo unspecified) ?
RESULT: T

QUERY: Returns: the outcome recorded for O=S(=O)(c1ccc(OCC(O)CN2CCN(c3ccccc3Cl)CC2)cc1)N1CCOCC1 (stereo unspecified) in this assay.
RESULT: T

QUERY: Fill in: this test's call for CC(C)CNC(=S)NNC(=O)c1ccccc1OC(F)F is ___
RESULT: F

QUERY: # lookup: test call for O=C(c1ccncc1)N1CCN(S(=O)(=O)c2cc(C(F)(F)F)cc(C(F)(F)F)c2)CC1
RESULT: F

QUERY: How was CC(C)c1cc(C(=O)O)on1 classified in this test?
RESULT: T

QUERY: Recorded call for COc1ccc(C(=O)OCC(=O)NC(=O)CCSc2ccccc2)cc1 ?
RESULT: F

QUERY: I would be grateful if you could indicate the recorded call for Cc1oc2cc([N+](=O)[O-])c(O)c([N+](=O)[O-])c2c1C(=O)c1ccc(Br)cc1 .
RESULT: F

QUERY: Tell me the assay call for COc1ccccc1C(=O)NC(CCSC)C(=O)N1CCN(C(C)=O)CC1 (stereo unspecified) please.
RESULT: F

QUERY: Could you kindly confirm the outcome this assay logged for CCn1cc(-c2cc(C(=O)O)on2)c(C)n1 ?
RESULT: F

QUERY: Per the assay record, what outcome was assigned to COc1ccc2c(c1)C(=C(C#N)C#N)C(=O)N2CCc1ccccc1 ?
RESULT: F
